Hello, the source for this data is PubChem BioAssay AID1963839, in case you need it.

System: 817829-284-R-J1-PDC complex spheroid viability
Assay: Anticancer human tumor 817829-284-R-J1-PDC patient-derived colon adenocarcinoma cell line growth inhibition [POLQ]; active = viability on the fitted dose curve at most 10% of control; inactive = the rest
Details: second compound 0.316 µM; first compound 0.0316 µM
Outcomes: class 1 = active, class 0 = inactive

compound	discrete_label
O=C(Nc1ccc(O)c(NS(=O)(=O)c2ccc(F)cc2)c1)c1ccc(-c2ccccc2)cc1 + COC1C(OC(N)=O)C(O)C(Oc2ccc3c(O)c(NC(=O)c4ccc(O)c(CC=C(C)C)c4)c(=O)oc3c2C)OC1(C)C	class 0
C=CC(=O)N1CCN(c2nc(=O)n(-c3c(C)ccnc3C(C)C)c3nc(-c4c(O)cccc4F)c(F)cc23)C(C)C1 (configuration not stated) + Nc1ccc(C#CCN(C(=O)Cc2ncc(C(F)(F)F)cc2C(F)(F)F)c2ccc(F)cc2)nn1	class 0
CCc1cc2c(N3CCc4c(cc(Cn5ccnc5)cc4-c4cn(C)nc4C(F)(F)F)C3=O)ccnc2c(OC)n1 + Nc1ccc(C#CCN(C(=O)Cc2ncc(C(F)(F)F)cc2C(F)(F)F)c2ccc(F)cc2)nn1	class 0
COc1cc(C2c3cc4c(cc3C(OC3OC5COC(C)OC5C(O)C3O)C3COC(=O)C23)OCO4)cc(OC)c1O (configuration not stated) + COC1C(OC(N)=O)C(O)C(Oc2ccc3c(O)c(NC(=O)c4ccc(O)c(CC=C(C)C)c4)c(=O)oc3c2C)OC1(C)C	class 0
COc1ccc([C@@H](O)c2cc(-c3ncnc4cc(N5CCOCC5)ccc34)c(F)cc2Cl)nn1 + Nc1ccc(C#CCN(C(=O)Cc2ncc(C(F)(F)F)cc2C(F)(F)F)c2ccc(F)cc2)nn1	class 0
CCc1cc2c(N3CCc4c(cc(Cn5ccnc5)cc4-c4cn(C)nc4C(F)(F)F)C3=O)cc(C)nc2c(OC)n1 + Cc1cccc(N(C)C(=O)C2C(O)CCN2c2nc(C)cc(C(F)(F)F)c2C#N)c1	class 0
CC1COCCN1c1cc(C2(O)CC3CCC(C2)O3)c2cnn(-c3ccn[nH]3)c2n1 (configuration not stated) + COC1C(OC(N)=O)C(O)C(Oc2ccc3c(O)c(NC(=O)c4ccc(O)c(CC=C(C)C)c4)c(=O)oc3c2C)OC1(C)C	class 0
C=CCn1c(=O)c2cnc(Nc3ccc(N4CCN(C)CC4)cc3)nc2n1-c1cccc(C(C)(C)O)n1 + Nc1ccc(C#CCN(C(=O)Cc2ncc(C(F)(F)F)cc2C(F)(F)F)c2ccc(F)cc2)nn1	class 0
COc1cccc(OCCCN)c1-c1cc(Nc2cnc(C#N)cn2)n[nH]1 + Cc1cccc(N(C)C(=O)C2C(O)CCN2c2nc(C)cc(C(F)(F)F)c2C#N)c1	class 1
Cn1ncnc1[C@H]1c2n[nH]c(=O)c3cc(F)cc(c23)N[C@@H]1c1ccc(F)cc1 + Cc1cccc(N(C)C(=O)C2C(O)CCN2c2nc(C)cc(C(F)(F)F)c2C#N)c1	class 0
CCCS(=O)(=O)Nc1ccc(F)c(C(=O)c2c[nH]c3ncc(-c4ccc(Cl)cc4)cc23)c1F + COC1C(OC(N)=O)C(O)C(Oc2ccc3c(O)c(NC(=O)c4ccc(O)c(CC=C(C)C)c4)c(=O)oc3c2C)OC1(C)C	class 0
O=C(Nc1ccc(O)c(NS(=O)(=O)c2ccc(F)cc2)c1)c1ccc(-c2ccccc2)cc1 + Nc1ccc(C#CCN(C(=O)Cc2ncc(C(F)(F)F)cc2C(F)(F)F)c2ccc(F)cc2)nn1	class 0
CCc1c2c(nc3ccc(O)cc13)-c1cc3c(c(=O)n1C2)COC(=O)[C@]3(O)CC + Nc1ccc(C#CCN(C(=O)Cc2ncc(C(F)(F)F)cc2C(F)(F)F)c2ccc(F)cc2)nn1	class 0
CC[C@@]1(O)C(=O)OCc2c1cc1n(c2=O)Cc2cc3c(CN(C)C)c(O)ccc3nc2-1 + Cc1cccc(N(C)C(=O)C2C(O)CCN2c2nc(C)cc(C(F)(F)F)c2C#N)c1	class 0
CCc1cc2c(N3CCc4c(cc(Cn5ccnc5)cc4-c4cn(C)nc4C(F)(F)F)C3=O)cc(C)nc2c(OC)n1 + COC1C(OC(N)=O)C(O)C(Oc2ccc3c(O)c(NC(=O)c4ccc(O)c(CC=C(C)C)c4)c(=O)oc3c2C)OC1(C)C	class 0
COc1cc2cc(C(=O)CCC(=O)O)sc2cc1OC + Cc1cccc(N(C)C(=O)C2C(O)CCN2c2nc(C)cc(C(F)(F)F)c2C#N)c1	class 0
O=c1[nH]cc(F)c(=O)[nH]1 + COC1C(OC(N)=O)C(O)C(Oc2ccc3c(O)c(NC(=O)c4ccc(O)c(CC=C(C)C)c4)c(=O)oc3c2C)OC1(C)C	class 0

###

System: 817829-284-R-J1-PDC complex spheroid viability
Assay: Anticancer human tumor 817829-284-R-J1-PDC cell line growth inhibition [POLQ];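 note: spheroids exposed to compounds for 7 days; 100% = DMSO vehicle-treated spheroids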
Conditions: second compound 10 µM; first compound 1 µM; active compounds read low

compound	viability, T/C
COc1cccc2c1C(=O)c1c(O)c3c(c(O)c1C2=O)CC(O)(C(=O)CO)CC3OC1CC(N)C(O)C(C)O1 (centres undefined) + Nc1ccc(C#CCN(C(=O)Cc2ncc(C(F)(F)F)cc2C(F)(F)F)c2ccc(F)cc2)nn1	0.29%
CCc1cc2c(N3CCc4c(cc(Cn5ccnc5)cc4-c4cn(C)nc4C(F)(F)F)C3=O)cc(C)nc2c(OC)n1 + Nc1ccc(C#CCN(C(=O)Cc2ncc(C(F)(F)F)cc2C(F)(F)F)c2ccc(F)cc2)nn1	50.2%
CCc1cc2c(N3CCc4c(cc(Cn5ccnc5)cc4-c4cn(C)nc4C(F)(F)F)C3=O)cc(C)nc2c(OC)n1 + Cc1cccc(N(C)C(=O)C2C(O)CCN2c2nc(C)cc(C(F)(F)F)c2C#N)c1	56.9%
CC1COCCN1c1cc(-c2ccnn2C)c2ccnc(-c3ccn[nH]3)c2n1 (centres undefined) + COC1C(OC(N)=O)C(O)C(Oc2ccc3c(O)c(NC(=O)c4ccc(O)c(CC=C(C)C)c4)c(=O)oc3c2C)OC1(C)C	4.22%
CCc1c2c(nc3ccc(O)cc13)-c1cc3c(c(=O)n1C2)COC(=O)[C@]3(O)CC + Cc1cccc(N(C)C(=O)C2C(O)CCN2c2nc(C)cc(C(F)(F)F)c2C#N)c1	2.83%
CC1COCCN1c1cc(C2(S(C)(=N)=O)CC2)nc(-c2ccnc3[nH]ccc23)n1 (centres undefined) + COC1C(OC(N)=O)C(O)C(Oc2ccc3c(O)c(NC(=O)c4ccc(O)c(CC=C(C)C)c4)c(=O)oc3c2C)OC1(C)C	24.6%
COc1cc2cc(C(=O)CCC(=O)O)sc2cc1OC + Nc1ccc(C#CCN(C(=O)Cc2ncc(C(F)(F)F)cc2C(F)(F)F)c2ccc(F)cc2)nn1	95.3%
CC1COCCN1c1cc(C2(O)CC3CCC(C2)O3)c2cnn(-c3ccn[nH]3)c2n1 (centres undefined) + COC1C(OC(N)=O)C(O)C(Oc2ccc3c(O)c(NC(=O)c4ccc(O)c(CC=C(C)C)c4)c(=O)oc3c2C)OC1(C)C	4.12%
Nc1ccn(C2OC(CO)C(O)C2(F)F)c(=O)n1 (centres undefined) + COC1C(OC(N)=O)C(O)C(Oc2ccc3c(O)c(NC(=O)c4ccc(O)c(CC=C(C)C)c4)c(=O)oc3c2C)OC1(C)C	5.17%

###

System: 817829-284-R-J1-PDC complex spheroid viability
Assay: Anticancer human tumor 817829-284-R-J1-PDC cell line growth inhibition [POLQ];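 note: spheroids exposed to compounds for 7 days; 100% = DMSO vehicle-treated spheroids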
Settings: second compound 0.1 µM; first compound 0.316 µM; active compounds read low

compound	viability, T/C [%]
COc1cccc(OCCCN)c1-c1cc(Nc2cnc(C#N)cn2)n[nH]1 + Nc1ccc(C#CCN(C(=O)Cc2ncc(C(F)(F)F)cc2C(F)(F)F)c2ccc(F)cc2)nn1	3.56
C=CC(=O)N1CCN(c2nc(=O)n(-c3c(C)ccnc3C(C)C)c3nc(-c4c(O)cccc4F)c(F)cc23)C(C)C1 (centres undefined) + Cc1cccc(N(C)C(=O)C2C(O)CCN2c2nc(C)cc(C(F)(F)F)c2C#N)c1	104
COc1cccc2c1C(=O)c1c(O)c3c(c(O)c1C2=O)CC(O)(C(=O)CO)CC3OC1CC(N)C(O)C(C)O1 (centres undefined) + Nc1ccc(C#CCN(C(=O)Cc2ncc(C(F)(F)F)cc2C(F)(F)F)c2ccc(F)cc2)nn1	6.2
COc1cccc2c1C(=O)c1c(O)c3c(c(O)c1C2=O)CC(O)(C(=O)CO)CC3OC1CC(N)C(O)C(C)O1 (centres undefined) + COC1C(OC(N)=O)C(O)C(Oc2ccc3c(O)c(NC(=O)c4ccc(O)c(CC=C(C)C)c4)c(=O)oc3c2C)OC1(C)C	6.74
CC1COCCN1c1cc(C2(S(C)(=N)=O)CC2)nc(-c2ccnc3[nH]ccc23)n1 (centres undefined) + COC1C(OC(N)=O)C(O)C(Oc2ccc3c(O)c(NC(=O)c4ccc(O)c(CC=C(C)C)c4)c(=O)oc3c2C)OC1(C)C	58.7
C=CCn1c(=O)c2cnc(Nc3ccc(N4CCN(C)CC4)cc3)nc2n1-c1cccc(C(C)(C)O)n1 + Nc1ccc(C#CCN(C(=O)Cc2ncc(C(F)(F)F)cc2C(F)(F)F)c2ccc(F)cc2)nn1	36
O=C(Nc1ccc(O)c(NS(=O)(=O)c2ccc(F)cc2)c1)c1ccc(-c2ccccc2)cc1 + COC1C(OC(N)=O)C(O)C(Oc2ccc3c(O)c(NC(=O)c4ccc(O)c(CC=C(C)C)c4)c(=O)oc3c2C)OC1(C)C	79.2
CCCS(=O)(=O)Nc1ccc(F)c(C(=O)c2c[nH]c3ncc(-c4ccc(Cl)cc4)cc23)c1F + Cc1cccc(N(C)C(=O)C2C(O)CCN2c2nc(C)cc(C(F)(F)F)c2C#N)c1	81.9
CNCc1ccc(-c2[nH]c3cc(F)cc4c3c2CCNC4=O)cc1 + COC1C(OC(N)=O)C(O)C(Oc2ccc3c(O)c(NC(=O)c4ccc(O)c(CC=C(C)C)c4)c(=O)oc3c2C)OC1(C)C	86
